System: Mus musculus
test summary: Antidepressant activity in ip dosed CD1 mouse assessed as inhibition of tetrabenazine methanesulfonate-induced reserpine like behavior administered 30 mins before tetrabenazine methanesulfonate challenge measured after 30 mins
Assay type: functional
Listing: ED50 of selected compounds
Quick reminder: number only, in mg/kg, skip the unit.

Solved cases below.
| smiles repr | ED50 [mg/kg] |
| --- | --- |
| ON1CCC(c2ccccc2Cc2ccccc2)CC1 | 7.3 |
| Br.c1ccc(CCN2CCC(c3ccccc3Cc3ccccc3)CC2)cc1 | 10.8 |
| CN(C)CCCN1c2ccccc2CCc2ccccc21 | 1.3 |

Next compound, please.
// query Could you share which ED50 value was measured for "COC1(c2ccccc2Cc2ccccc2)CCNCC1" ?
// result 7.8
